The origin of these recorded values is patent US20240182556A1.

test target: T1, PE9413, C-terminal biotinylated peptide mapping on Exon6 of the SCF molecule (SCF248) (C-terminal biotin)
T1 construct: also called C-terminal biotinylated PE9413; C-ter PE9413
T1 peptide: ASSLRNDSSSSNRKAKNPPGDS
experiment: yeast-displayed scFv, flow cytometry titration of biotinylated peptide
readout name: pKd
Just the number, please; pKd means minus log10 of the concentration in mol/L.

Query: Please give measured pKd of the following entry: A84P scFv displayed on yeast (scFv, V domains shown, Aga2-anchored, VH-VL orientation; not shown: linker; SV5 tag) VH: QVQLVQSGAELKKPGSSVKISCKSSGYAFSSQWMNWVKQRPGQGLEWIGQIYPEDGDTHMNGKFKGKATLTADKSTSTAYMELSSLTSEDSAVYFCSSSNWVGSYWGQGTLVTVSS VL: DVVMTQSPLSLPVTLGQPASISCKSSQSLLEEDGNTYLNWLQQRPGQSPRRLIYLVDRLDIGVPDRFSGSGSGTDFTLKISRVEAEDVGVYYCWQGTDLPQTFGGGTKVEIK
Response: 8.60
